Source: patent US20240208964A1

Target: full-length human PIKFYVE (GST-PIKFYVE) (Homo sapiens (Human), UniProt Q9Y2I7, L932S/Q1183K/Q995L/S1033A/S696N/T998S)
Sequence (Q9Y2I7 whole entry S696N/L932S/Q995L/T998S/S1033A/Q1183K): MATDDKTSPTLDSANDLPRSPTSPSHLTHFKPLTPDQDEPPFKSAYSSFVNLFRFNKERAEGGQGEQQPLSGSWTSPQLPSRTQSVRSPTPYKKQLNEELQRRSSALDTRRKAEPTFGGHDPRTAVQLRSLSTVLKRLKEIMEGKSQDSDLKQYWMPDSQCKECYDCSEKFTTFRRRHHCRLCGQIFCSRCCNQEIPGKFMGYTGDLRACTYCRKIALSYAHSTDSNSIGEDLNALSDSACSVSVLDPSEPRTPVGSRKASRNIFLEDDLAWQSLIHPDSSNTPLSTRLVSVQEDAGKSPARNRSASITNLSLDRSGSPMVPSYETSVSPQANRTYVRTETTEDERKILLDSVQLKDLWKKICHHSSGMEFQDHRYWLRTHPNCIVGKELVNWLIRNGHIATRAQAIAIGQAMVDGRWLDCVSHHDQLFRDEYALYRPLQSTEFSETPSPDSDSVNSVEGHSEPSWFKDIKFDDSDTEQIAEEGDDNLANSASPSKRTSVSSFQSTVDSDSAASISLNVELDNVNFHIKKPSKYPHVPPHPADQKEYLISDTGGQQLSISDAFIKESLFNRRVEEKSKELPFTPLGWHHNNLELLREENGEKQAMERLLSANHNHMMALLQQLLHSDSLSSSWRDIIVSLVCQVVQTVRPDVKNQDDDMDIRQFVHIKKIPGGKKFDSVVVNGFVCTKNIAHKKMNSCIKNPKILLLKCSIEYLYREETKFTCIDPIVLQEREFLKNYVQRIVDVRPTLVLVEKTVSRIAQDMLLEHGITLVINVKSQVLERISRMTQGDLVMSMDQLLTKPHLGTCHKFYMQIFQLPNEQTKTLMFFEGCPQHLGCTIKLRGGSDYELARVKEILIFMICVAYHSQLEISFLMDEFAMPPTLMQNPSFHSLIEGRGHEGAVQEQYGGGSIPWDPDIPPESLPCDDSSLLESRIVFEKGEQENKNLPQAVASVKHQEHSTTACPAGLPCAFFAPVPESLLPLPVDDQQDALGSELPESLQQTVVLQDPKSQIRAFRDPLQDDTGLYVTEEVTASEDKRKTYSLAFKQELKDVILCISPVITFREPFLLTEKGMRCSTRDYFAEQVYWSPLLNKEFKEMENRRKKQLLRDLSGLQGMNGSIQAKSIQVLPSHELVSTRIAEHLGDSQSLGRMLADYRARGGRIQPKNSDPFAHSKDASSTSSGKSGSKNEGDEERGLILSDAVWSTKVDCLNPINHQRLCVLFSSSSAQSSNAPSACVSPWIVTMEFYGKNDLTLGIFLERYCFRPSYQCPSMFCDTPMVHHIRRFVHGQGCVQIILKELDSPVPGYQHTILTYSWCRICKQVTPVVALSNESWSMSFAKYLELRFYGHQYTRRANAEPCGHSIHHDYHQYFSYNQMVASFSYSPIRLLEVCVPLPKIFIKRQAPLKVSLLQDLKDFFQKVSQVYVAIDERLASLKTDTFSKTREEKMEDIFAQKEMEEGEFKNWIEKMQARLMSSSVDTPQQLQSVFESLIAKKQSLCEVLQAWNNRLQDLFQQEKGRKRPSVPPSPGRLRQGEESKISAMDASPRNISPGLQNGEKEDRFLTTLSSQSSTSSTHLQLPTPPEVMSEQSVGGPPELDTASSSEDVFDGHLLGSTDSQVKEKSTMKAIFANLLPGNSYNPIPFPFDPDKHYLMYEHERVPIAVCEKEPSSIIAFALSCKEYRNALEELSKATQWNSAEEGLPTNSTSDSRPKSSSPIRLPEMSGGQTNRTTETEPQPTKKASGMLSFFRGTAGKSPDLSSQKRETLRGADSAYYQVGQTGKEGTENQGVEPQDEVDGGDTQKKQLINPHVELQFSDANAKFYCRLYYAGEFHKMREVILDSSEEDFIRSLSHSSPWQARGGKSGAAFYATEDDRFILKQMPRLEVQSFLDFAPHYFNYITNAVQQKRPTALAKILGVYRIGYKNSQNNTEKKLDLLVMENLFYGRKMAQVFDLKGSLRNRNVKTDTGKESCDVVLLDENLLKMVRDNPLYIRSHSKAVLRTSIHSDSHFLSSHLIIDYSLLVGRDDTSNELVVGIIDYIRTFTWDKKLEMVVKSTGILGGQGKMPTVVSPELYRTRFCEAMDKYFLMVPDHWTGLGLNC
Assay: PIKfyve biochemical assay (ADP-Glo Kinase assay, Carna Biosciences)
Conditions: ADP-Glo, full-length human PIKFYVE; read-out: hPIKfyve IC50
Reported metric: IC50

Examples with their reported IC50 follow.
[[record]]
molecule = "c1ccc(-c2ccn(-c3nc(N4CCOCC4)c4ccncc4n3)n2)cc1"
reported_metric = "IC50"
observed_result = "100 to 1000 nM"

[[record]]
molecule = "Cc1cccc(/C=N/Nc2nc(N3CCOCC3)c3ncccc3n2)c1"
reported_metric = "IC50"
observed_result = "10 to 100 nM"

[[record]]
molecule = "c1cnc2c(N3CCOCC3)nc(-c3ccnc(N4CCOCC4)n3)nc2c1"
reported_metric = "IC50"
observed_result = "1000 to 10000 nM"

[[record]]
molecule = "CC(C)c1ccn(-c2nc(N3CCOCC3)c3ncccc3n2)n1"
reported_metric = "IC50"
observed_result = "1000 to 10000 nM"


Incoming: Could you share which IC50 value was measured for `Cc1cccc(CCNc2nc(N3CCOCC3)c3ncccc3n2)c1` ?
Outgoing: 100 to 1000 nM

Incoming: Next molecule up: `CC(C)(C)OC(=O)N1CCC(c2ccn(-c3nc(N4CCOCC4)c4ncccc4n3)n2)CC1`
Outgoing: 1000 to 10000 nM

---

Molecular target: full-length human PIKFYVE (GST-PIKFYVE) (Homo sapiens (Human), UniProt Q9Y2I7, L932S/Q1183K/Q995L/S1033A/S696N/T998S)
Test: PIKfyve biochemical assay (ADP-Glo Kinase assay, Carna Biosciences)
Details: ADP-Glo, full-length human PIKFYVE; read-out: hPIKfyve IC50
Reported metric: IC50

The cases that follow already have their IC50 on record.
[[record]]
compound = "Fc1cccc(-c2nccc(-c3nc(N4CCOCC4)c4ncc(Cc5cccnc5)cc4n3)n2)c1"
reported_metric = "IC50"
observed_result = "100 to 1000 nM"

[[record]]
compound = "c1ccc(-c2ccn(-c3nc(N4CCOCC4)c4ncccc4n3)n2)nc1"
reported_metric = "IC50"
observed_result = "10 to 100 nM"

[[record]]
compound = "c1cnc2c(N3CCOCC3)nc(-n3ccc(C4CCCNC4)n3)nc2c1 (centres unmarked) [compound 48]"
reported_metric = "IC50"
observed_result = "1000 to 10000 nM"

[[record]]
compound = "c1ccc(-c2ccn(-c3nc(N4CCOCC4)c4cnccc4n3)n2)cc1"
reported_metric = "IC50"
observed_result = "1000 to 10000 nM"

[[record]]
compound = "c1ccc(-c2ccn(-c3nc(N4CCOCC4)c4ncc(C5CCOCC5)cc4n3)n2)cc1"
reported_metric = "IC50"
observed_result = "10 to 100 nM"

[[record]]
compound = "c1cnc2c(N3CCOCC3)nc(-c3ccnc(C4CCOCC4)n3)nc2c1"
reported_metric = "IC50"
observed_result = "1000 to 10000 nM"

[[record]]
compound = "c1ccc(-c2ccn(-c3nc(N4CCOCC4)c4ncc(C5CCCCO5)cc4n3)n2)cc1 (centres unmarked)"
reported_metric = "IC50"
observed_result = "10 to 100 nM"

[[record]]
compound = "Fc1cccc(Nc2nc(N3CCOCC3)c3ncc(Cc4cccnc4)cc3n2)c1"
reported_metric = "IC50"
observed_result = "1000 to 10000 nM"


Incoming: GET /values?readout=IC50&item= `Oc1cc(-c2ccccc2)nn1-c1nc(N2CCOCC2)c2cccnc2n1`
Outgoing: 1000 to 10000 nM

Incoming: Entry `CCC(=O)N1CCC(c2ccn(-c3nc(N4CCOCC4)c4ncccc4n3)n2)CC1` please
Outgoing: 1000 to 10000 nM

Incoming: Let us now turn to `c1cnc2c(N3CCOCC3)nc(-n3ccc(-c4ccncc4)n3)nc2c1`
Outgoing: 100 to 1000 nM

Incoming: Repeat with `Cc1cccc(-c2cc(O)n(-c3nc(N4CCOCC4)c4ncccc4n3)n2)c1`
Outgoing: 10 to 100 nM

Incoming: Consider next the compound `CCn1c(-c2ccccc2)nn(-c2nc(N3CCOCC3)c3ncccc3n2)c1=O` in the same way.
Outgoing: 1000 to 10000 nM

Incoming: Next record, please: `Cc1cccc(-c2cc(O)n(-c3nc(N4CCOCC4)c4ncc(Cc5cccnc5)cc4n3)n2)c1`
Outgoing: 10 to 100 nM

Incoming: Same question, `O=C1N(c2cccc(F)c2)CCN1c1nc(N2CCOCC2)c2ncccc2n1` this time
Outgoing: 1000 to 10000 nM

Incoming: Next compound up: `Oc1cc(-c2ccccc2)nn1-c1nc(N2CCOCC2)c2ncccc2n1`
Outgoing: 10 to 100 nM

Incoming: Record: `c1cncc(-c2ccn(-c3nc(N4CCOCC4)c4ncccc4n3)n2)c1`
Outgoing: 100 to 1000 nM

Incoming: Now the same for c1ccc(-c2ccn(-c3nc(N4CCOCC4)c4ncc(C5CCCO5)cc4n3)n2)cc1 (centres unmarked)
Outgoing: 10 to 100 nM

Incoming: Try the compound Cc1cccc(CCNc2nc(N3CCOCC3)c3ncc(C(O)c4cccnc4)cc3n2)c1 (centres unmarked)
Outgoing: 100 to 1000 nM

Incoming: Here is the next compound: `O=C(c1cccnc1)c1nc(N2CCOCC2)c2ncccc2n1`
Outgoing: 100 to 1000 nM

Incoming: One more compound: `c1cnc2c(N3CCOCC3)nc(-c3ccnc(N4CCNCC4)n3)nc2c1`
Outgoing: 1000 to 10000 nM

Incoming: And for `c1ccc2nn(-c3nc(N4CCOCC4)c4ncccc4n3)cc2c1` ?
Outgoing: 100 to 1000 nM

Incoming: Same read-out for `c1cnc2c(N3CCOCC3)nc(-n3ccc(C4CCOCC4)n3)nc2c1` ?
Outgoing: 1000 to 10000 nM

Incoming: Field entry: `CCc1cnc2c(N3CCOCC3)nc(-n3ccc(-c4ccncc4)n3)nc2c1`
Outgoing: 1000 to 10000 nM
